Molecular target: β-catenin (Homo sapiens)
Sequence (P35222 whole entry): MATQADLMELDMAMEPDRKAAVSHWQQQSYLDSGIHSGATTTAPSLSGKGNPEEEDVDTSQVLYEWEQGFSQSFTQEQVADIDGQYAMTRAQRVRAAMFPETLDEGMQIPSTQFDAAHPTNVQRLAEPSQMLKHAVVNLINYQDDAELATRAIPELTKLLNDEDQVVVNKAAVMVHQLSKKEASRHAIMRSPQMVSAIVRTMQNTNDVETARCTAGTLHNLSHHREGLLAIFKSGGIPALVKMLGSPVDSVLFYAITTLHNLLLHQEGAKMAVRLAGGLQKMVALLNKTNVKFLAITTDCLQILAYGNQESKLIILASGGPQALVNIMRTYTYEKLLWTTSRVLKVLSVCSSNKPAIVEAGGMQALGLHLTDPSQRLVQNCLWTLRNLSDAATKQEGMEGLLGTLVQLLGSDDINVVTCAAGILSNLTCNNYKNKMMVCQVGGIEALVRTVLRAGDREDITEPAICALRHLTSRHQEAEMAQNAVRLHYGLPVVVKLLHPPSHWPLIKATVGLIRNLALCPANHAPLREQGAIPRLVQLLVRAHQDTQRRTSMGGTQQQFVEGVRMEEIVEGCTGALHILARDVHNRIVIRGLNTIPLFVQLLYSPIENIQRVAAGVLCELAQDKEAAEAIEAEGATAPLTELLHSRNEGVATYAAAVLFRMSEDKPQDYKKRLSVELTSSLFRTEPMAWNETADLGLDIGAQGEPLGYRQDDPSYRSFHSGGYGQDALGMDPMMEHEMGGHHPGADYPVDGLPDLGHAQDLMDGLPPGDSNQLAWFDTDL
Experiment: KD50 measurement using competitive fluorescence polarization (FP) with labelled TCF4
Assay type: binding
Conditions: fluorescence polarization, β-catenin; read-out: β-Cat FP KD
pKd: −log10 of the molar value. Where a SMILES comes first, the peptide text is derived from it.

Compound	pKd
CC[C@H](C)[C@@H]1NC(=O)[C@H](CC(C)C)NC(=O)[C@H](Cc2ccccc2)NC(=O)[C@H](Cc2c[nH]c3ccccc23)NC(=O)[C@@H](N)CCCCNC(=O)C[C@@H](C(=O)O)NC(=O)[C@H](Cc2c[nH]c3ccccc23)NC(=O)[C@H](Cc2ccccc2)NC(=O)[C@H](CS)NC1=O [compound 172] (HELM PEPTIDE1{K.W.F.L.I.C.F.W.D}$PEPTIDE1,PEPTIDE1,1:R3-9:R3$$$V2.0)	5.00 to 6.00
CC[C@H](C)[C@H](NC(=O)[C@H](CC(C)C)NC(=O)[C@H](Cc1ccccc1)NC(=O)[C@H](Cc1c[nH]c2ccccc12)NC(=O)[C@H](CCSC)NC(C)=O)C(=O)N[C@@H](CS)C(=O)N[C@@H](Cc1ccccc1)C(=O)N[C@@H](Cc1c[nH]c2ccccc12)C(=O)NCC(=O)O [compound 198] (Ac-MWFLICFWG-OH)	6.00 to 6.40
